Quick reference: selectivity index (SI) of the listed items.
- Tested on: normal fibroblasts (WI-38)
- ASSAY_COMMENT: Cytotoxicity
- ASSAY_CONDITIONS: SI = WI-38 IC50/IC50 against cancer cells
I only need the number, thanks.

*Q* Give normal fibroblasts (WI-38) selectivity index (SI) for N#CC(C(=O)Nc1nnc(NC(=O)c2ccccc2)s1)=C1Oc2cccnc2O1
*A* 1.5

---

- System: normal fibroblasts (WI-38)
- ASSAY_COMMENT: Cytotoxicity
- ASSAY_CONDITIONS: SI = WI-38 IC50/IC50 against cancer cells
ENDPOINT: selectivity index (SI)
I only need the number, thanks.

- CPD_SMILES: "Nc1nnc(NC(=O)c2ccccc2)s1"
  SYSTEM_UNDER_TEST: "normal fibroblasts (WI-38)"
  selectivity index (SI): 1.0

*Q* Give normal fibroblasts (WI-38) selectivity index (SI) for N#CCC(=O)Nc1nnc(NC(=O)c2ccccc2)s1
*A* 1.2

*Q* Give normal fibroblasts (WI-38) selectivity index (SI) for O=C(Nc1nnc(NC(=O)c2cc3ccccc3oc2=O)s1)c1ccccc1
*A* 1.5

*Q* Give normal fibroblasts (WI-38) selectivity index (SI) for N#CC(=Cc1cccs1)C(=O)Nc1nnc(NC(=O)c2ccccc2)s1
*A* 0.4

*Q* Give normal fibroblasts (WI-38) selectivity index (SI) for Cc1cc(-c2ccccc2)n(-c2nnc(NC(=O)c3ccccc3)s2)c(=O)c1C#N
*A* 1.7

---

- Tested on: normal fibroblasts (WI-38)
- ASSAY_COMMENT: Cytotoxicity
- ASSAY_CONDITIONS: Homo sapiens, WI-38, 48 h, read-out: IC50, normal fibroblasts WI-38
ENDPOINT: pIC50
In simple prose, pIC50 is minus the logarithm base ten of a concentration in moles per litre.

Some entries whose results are on file:
- COMPOUND: "N#CC(C(=O)Nc1nnc(NC(=O)c2ccccc2)s1)=C1SCCN1c1ccccc1 [Compound 14]"
  RESULT_VALUE: 4.27
- COMPOUND: "N#CC(=Cc1ccc(Cl)cc1)C(=O)Nc1nnc(NC(=O)c2ccccc2)s1 [Compound 7b]"
  RESULT_VALUE: 4.38
- COMPOUND: "Cc1cc(C)n(-c2nnc(NC(=O)c3ccccc3)s2)c(=O)c1C#N [Compound 9]"
  RESULT_VALUE: 4.30
- COMPOUND: "N=c1oc2ccccc2cc1C(=O)Nc1nnc(NC(=O)c2ccccc2)s1 [Compound 4]"
  RESULT_VALUE: 4.53
- COMPOUND: "O=C(Nc1nnc(NC(=O)c2cc3ccccc3oc2=O)s1)c1ccccc1 [Compound 5]"
  RESULT_VALUE: 4.04
- COMPOUND: "N#CCC(=O)Nc1nnc(NC(=O)c2ccccc2)s1 [Compound 3]"
  RESULT_VALUE: 4.43

*Q* Entry under review: N#CC(=Cc1ccco1)C(=O)Nc1nnc(NC(=O)c2ccccc2)s1 [Compound 7c] . Reported pIC50?
*A* 4.65

*Q* Entry under review: N#Cc1c(Nc2ccccc2)n2nc(NC(=O)c3ccccc3)sc2nc1=O [Compound 15] . Reported pIC50?
*A* 4.71

*Q* Entry under review: N#CC(C(=O)Nc1nnc(NC(=O)c2ccccc2)s1)=C1Oc2cccnc2O1 [Compound 20] . Reported pIC50?
*A* 4.37

*Q* Entry under review: Nc1nnc(NC(=O)c2ccccc2)s1 [Compound 2] . Reported pIC50?
*A* 4.76

*Q* Entry under review: N#CC(=Cc1cccs1)C(=O)Nc1nnc(NC(=O)c2ccccc2)s1 [Compound 7d] . Reported pIC50?
*A* 4.91

*Q* Entry under review: N#CC(=Cc1ccc(Cl)cc1Cl)C(=O)Nc1nnc(NC(=O)c2ccccc2)s1 [Compound 7a] . Reported pIC50?
*A* 5.04

*Q* Entry under review: N#CC(C(=O)Nc1nnc(NC(=O)c2ccccc2)s1)C(=S)Nc1ccccc1 (stereo not drawn) [Compound 16] . Reported pIC50?
*A* 4.07

*Q* Entry under review: N#CC(=Cc1ccc([N+](=O)[O-])cc1)C(=O)Nc1nnc(NC(=O)c2ccccc2)s1 [Compound 7e] . Reported pIC50?
*A* 4.63

*Q* Entry under review: COc1ccc(C=C(C#N)C(=O)Nc2nnc(NC(=O)c3ccccc3)s2)cc1 [Compound 6b] . Reported pIC50?
*A* 4.30

*Q* Entry under review: N#CC(C(=O)Nc1nnc(NC(=O)c2ccccc2)s1)=C1Nc2ccccc2O1 [Compound 19] . Reported pIC50?
*A* 4.22

*Q* Entry under review: COc1cc(C=C(C#N)C(=O)Nc2nnc(NC(=O)c3ccccc3)s2)ccc1O [Compound 7f] . Reported pIC50?
*A* 4.84

*Q* Entry under review: CSC(SC)=C(C#N)C(=O)Nc1nnc(NC(=O)c2ccccc2)s1 [Compound 17] . Reported pIC50?
*A* 4.09
